All values here come from patent US20250171516A1.

Biological target: GLP-1R (Homo sapiens)
Sequence (P43220 24-463): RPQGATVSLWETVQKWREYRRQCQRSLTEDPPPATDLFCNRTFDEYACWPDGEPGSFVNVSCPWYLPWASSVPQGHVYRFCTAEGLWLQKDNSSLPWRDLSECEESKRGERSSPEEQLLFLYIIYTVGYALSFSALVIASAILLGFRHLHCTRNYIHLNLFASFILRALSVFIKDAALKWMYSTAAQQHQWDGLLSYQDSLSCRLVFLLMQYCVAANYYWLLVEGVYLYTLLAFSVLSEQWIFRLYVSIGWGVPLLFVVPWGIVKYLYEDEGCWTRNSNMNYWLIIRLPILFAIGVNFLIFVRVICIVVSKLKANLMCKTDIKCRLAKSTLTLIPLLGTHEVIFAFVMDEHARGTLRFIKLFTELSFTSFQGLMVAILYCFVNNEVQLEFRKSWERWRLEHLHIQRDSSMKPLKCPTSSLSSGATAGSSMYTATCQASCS
Assay: CRE-Luc cAMP responsive luciferase reporter assay in HEK293/CRE-Luc/hGLP1R cells
Format: cell-based
Set-up: engineered to express full-length human GLP1R (GenBank: AAI12127.1) (HEK293/CRE-Luc/hGLP1R); expressed in transfected cells; host or cells: HEK293/CRE-Luc (HEK293/FSC11/pCDNA3.1 + GLP1R, ACL6822)
Settings: HEK293, read-out: Emax (% GLP-1), CRE-dependent reporter activity, HEK293/CRE-Luc/hGLP1R
experimental.readout: Emax (%)
Numeric only. Scale: %

Use the examples below as a reference point.
Cc1cc(OCCOCCOCCOCCOCCOCCOCCOCCN)ccc1-c1ccc(C[C@H](NC(=O)[C@H](CC(=O)O)NC(=O)[C@H](CO)NC(=O)[C@@H](NC(=O)C(C)(Cc2ccccc2F)NC(=O)[C@@H](NC(=O)CNC(=O)[C@H](Cc2nnn[nH]2)NC(=O)C(C)(C)C(=O)NCCc2cnc[nH]2)[C@@H](C)O)[C@@H](C)O)C(=O)O)cc1 (stereo partly shown) [M6447]: 9.8
CCc1cc(OCCCCn2cc(COCCOCCOCCOCCOCCOCCOCCOCCN)nn2)ccc1-c1ccc(C[C@H](NC(=O)[C@H](CC(=O)O)NC(=O)[C@H](CO)NC(=O)[C@@H](NC(=O)C(C)(Cc2ccccc2F)NC(=O)[C@@H](NC(=O)CNC(=O)[C@H](Cc2nn[nH]n2)NC(=O)C(C)(C)C(=O)NCCc2cnc[nH]2)[C@@H](C)O)[C@@H](C)O)C(=O)N[C@@H](CCCc2cc(C)cc(C)c2)C(=O)O)cc1 (stereo partly shown) [M6009]: 92.1
CCc1cc(OCCCCn2cc(COCCOCCOCCOCCOCCOCCOCCOCCN)nn2)ccc1-c1ccc(C[C@H](NC(=O)[C@H](CC(=O)O)NC(=O)[C@H](CO)NC(=O)[C@@H](NC(=O)C(C)(Cc2ccccc2F)NC(=O)[C@@H](NC(=O)CNC(=O)[C@H](Cc2nnn[nH]2)NC(=O)C(C)(C)C(=O)NCCc2cnc[nH]2)[C@@H](C)O)[C@@H](C)O)C(=O)O)cc1 (stereo partly shown) [M6324]: 91.6

Value lookup for Emax; key = CCc1cc(OCCCCn2cc(COCCOCCOCCOCCOCCOCCOCCOCCN)nn2)ccc1-c1ccc(C[C@H](NC(=O)[C@H](CC(=O)O)NC(=O)[C@H](CO)NC(=O)[C@@H](NC(=O)[C@](C)(Cc2ccccc2F)NC(=O)[C@@H](NC(=O)CNC(=O)[C@H](Cc2nn[nH]n2)NC(=O)C(C)(C)C(=O)NCCc2cnc[nH]2)[C@@H](C)O)[C@@H](C)O)C(=O)N[C@@H](CCCc2cc(C)cc(C)c2)C(N)=O)cc1 [M3190] 96.3
